# target entity: D(1A) dopamine receptor (Homo sapiens, UniProt P21728)
# Sequence (P21728 whole entry): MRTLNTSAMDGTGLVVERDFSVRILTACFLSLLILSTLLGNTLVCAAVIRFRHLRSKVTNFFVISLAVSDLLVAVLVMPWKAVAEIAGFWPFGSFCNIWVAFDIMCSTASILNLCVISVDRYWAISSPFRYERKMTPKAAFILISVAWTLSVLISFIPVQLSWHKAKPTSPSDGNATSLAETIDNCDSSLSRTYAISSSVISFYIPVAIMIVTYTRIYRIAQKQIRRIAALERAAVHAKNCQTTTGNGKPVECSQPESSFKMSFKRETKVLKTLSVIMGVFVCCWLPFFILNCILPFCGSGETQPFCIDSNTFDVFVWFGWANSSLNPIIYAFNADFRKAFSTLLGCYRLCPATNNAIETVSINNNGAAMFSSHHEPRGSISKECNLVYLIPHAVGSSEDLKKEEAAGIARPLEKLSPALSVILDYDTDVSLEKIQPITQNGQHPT
metric name: Ki (µM)

[[record]]
molecule = "COc1ccccc1N1CCN(CCCCN2C(=O)c3ccccc3C2=O)CC1"
metric_name = "Ki"
value_qualifier = "="
endpoint_result = 4.51

[[record]]
molecule = "CC[C@@H]1CC2C[C@@H]3c4[nH]c5ccc(OC)cc5c4CCN(C2)C13"
metric_name = "Ki"
value_qualifier = ">"
endpoint_result = 10

[[record]]
molecule = "CCCN1CCCC(c2cccc(O)c2)C1 (centres undefined)"
metric_name = "Ki"
value_qualifier = ">"
endpoint_result = 10

[[record]]
molecule = "CN(C)CCCN1c2ccccc2CCc2ccccc21"
metric_name = "Ki"
value_qualifier = ">"
endpoint_result = 10

[[record]]
molecule = "CN1C2CCC1CC(OC(=O)c1c[nH]c3ccccc13)C2 (centres undefined)"
metric_name = "Ki"
value_qualifier = ">"
endpoint_result = 10

[[record]]
molecule = "COC(=O)[C@H]1[C@H]2C[C@@H]3c4[nH]c5cc(OC)ccc5c4CCN3C[C@H]2C[C@@H](OC(=O)c2cc(OC)c(OC)c(OC)c2)[C@@H]1OC"
metric_name = "Ki"
value_qualifier = "="
endpoint_result = 3.85

[[record]]
molecule = "Cc1[nH]c2ccc(O)cc2c1CCN"
metric_name = "Ki"
value_qualifier = ">"
endpoint_result = 10

[[record]]
molecule = "CC(C)C[C@H]1C(=O)N2CCC[C@H]2[C@]2(O)O[C@](NC(=O)[C@@H]3C=C4c5cccc6[nH]c(Br)c(c56)C[C@H]4N(C)C3)(C(C)C)C(=O)N12"
metric_name = "Ki"
value_qualifier = "="
endpoint_result = 2.07

[[record]]
molecule = "CN1CC(C(=O)N[C@]2(C)O[C@@]3(O)C4CCCN4C(=O)[C@H](Cc4ccccc4)N3C2=O)CC2c3cccc4[nH]cc(c34)CC21 (some centres undefined)"
metric_name = "Ki"
value_qualifier = "="
endpoint_result = 2.78


* * *

# target entity: 5-hydroxytryptamine receptor 3A (Mus musculus)
# Sequence (P23979 whole entry): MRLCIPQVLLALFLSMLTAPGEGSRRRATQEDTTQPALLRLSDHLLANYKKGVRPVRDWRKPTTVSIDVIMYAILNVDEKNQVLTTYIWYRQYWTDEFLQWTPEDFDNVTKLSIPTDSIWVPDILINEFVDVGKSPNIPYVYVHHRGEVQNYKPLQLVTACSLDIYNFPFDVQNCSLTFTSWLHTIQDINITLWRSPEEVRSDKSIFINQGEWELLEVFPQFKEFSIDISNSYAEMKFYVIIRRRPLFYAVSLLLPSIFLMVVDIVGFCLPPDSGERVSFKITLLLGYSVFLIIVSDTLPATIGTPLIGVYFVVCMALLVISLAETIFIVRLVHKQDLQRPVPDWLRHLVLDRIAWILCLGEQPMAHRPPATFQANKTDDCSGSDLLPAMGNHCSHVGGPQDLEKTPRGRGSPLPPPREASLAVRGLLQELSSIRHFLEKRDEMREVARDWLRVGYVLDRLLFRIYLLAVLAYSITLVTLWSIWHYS
pKi: −log10 of the molar value.
In this section we review reported pKi values for a set of molecules.
metric name: pKi

[[record]]
molecule = "CCc1cc(Cl)c(OC)c(C(=O)NC[C@@H]2CCCN2CC)c1O"
metric_name = "pKi"
endpoint_result = "< 5.00"

[[record]]
molecule = "CCN(CC)CCNC(=O)c1cc(Cl)c(N)cc1OC"
metric_name = "pKi"
endpoint_result = 6.45

[[record]]
molecule = "CCCN(CCC)C1CCc2cccc(O)c2C1 (configuration not stated)"
metric_name = "pKi"
endpoint_result = "< 5.00"

[[record]]
molecule = "CC[C@@H]1CC2C[C@@H]3c4[nH]c5ccc(OC)cc5c4CCN(C2)C13"
metric_name = "pKi"
endpoint_result = "< 5.00"

[[record]]
molecule = "Cc1ccc(N(CC2=NCCN2)c2cccc(O)c2)cc1"
metric_name = "pKi"
endpoint_result = 5.37

[[record]]
molecule = "CN(C)CCCN1c2ccccc2Sc2ccc(Cl)cc21"
metric_name = "pKi"
endpoint_result = 6.09

[[record]]
molecule = "CCCN1CCC[C@@H]2Cc3n[nH]cc3C[C@H]21"
metric_name = "pKi"
endpoint_result = "< 5.00"

[[record]]
molecule = "NCCc1ccc(O)c(O)c1"
metric_name = "pKi"
endpoint_result = "< 5.00"

[[record]]
molecule = "CN1Cc2c(N)cccc2[C@H](c2ccccc2)C1"
metric_name = "pKi"
endpoint_result = "< 5.00"

[[record]]
molecule = "c1ccc2c(c1)OCC(C1=NCCN1)O2 (configuration not stated)"
metric_name = "pKi"
endpoint_result = "< 5.00"

[[record]]
molecule = "c1ccc2nc(N3CCNCC3)ccc2c1"
metric_name = "pKi"
endpoint_result = 8.49

[[record]]
molecule = "NC(Cc1ccc(O)c(O)c1)C(=O)O (configuration not stated)"
metric_name = "pKi"
endpoint_result = "< 5.00"


* * *

Each entry below lists one item and its recorded Ki value.
# target entity: Mu-type opioid receptor (Cavia porcellus, UniProt P97266)
# Sequence (P97266 whole entry): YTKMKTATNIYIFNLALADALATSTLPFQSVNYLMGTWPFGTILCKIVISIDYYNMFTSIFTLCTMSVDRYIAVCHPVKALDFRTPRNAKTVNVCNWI
Non-standard residues stand in square brackets, D forms with d. Residues, ends and D or L forms follow the SMILES beside them. NMeF = CN[C@@H](Cc1ccccc1)C(=O)O
metric name: Ki (nM)

[[record]]
compound = "CC[C@H](C)[C@H](NC(=O)[C@H](CCCNC(=N)N)NC(=O)[C@H](CCCNC(=N)N)NC(=O)[C@H](CC(C)C)NC(=O)[C@H](Cc1ccccc1)NC(=O)CNC(=O)CNC(=O)[C@@H](N)Cc1ccc(O)cc1)C(=O)N[C@@H](CCCNC(=N)N)C(=O)N1CCC[C@H]1C(=O)N[C@@H](CCCCN)C(=O)N[C@@H](CC(C)C)C(=O)N[C@@H](CCCCN)C(=O)O"
target_entity = "Mu-type opioid receptor (Cavia porcellus, UniProt P97266)"
metric_name = "Ki"
endpoint_result = 3.3

[[record]]
compound = "Oc1ccc2c3c1O[C@H]1c4[nH]c5c(c4C[C@@]4(O)[C@@H](C2)N(CC2CC2)CC[C@]314)C[C@@]1(O)[C@H]2Cc3ccc(O)c4c3[C@@]1(CCN2CC1CC1)[C@H]5O4"
target_entity = "Mu-type opioid receptor (Cavia porcellus, UniProt P97266)"
metric_name = "Ki"
endpoint_result = 8.3

[[record]]
compound = "CN1CC[C@]23CCCC[C@H]2[C@H]1Cc1ccc(O)cc13"
target_entity = "Mu-type opioid receptor (Cavia porcellus, UniProt P97266)"
metric_name = "Ki"
endpoint_result = 0.3

[[record]]
compound = "CN(C(=O)[C@@H]1CCCN1C(=O)[C@@H](N)Cc1ccc(O)cc1)[C@@H](Cc1ccccc1)C(=O)N1CCC[C@@H]1C(N)=O (H-YP[NMeF][dP]-NH2)"
target_entity = "Mu-type opioid receptor (Cavia porcellus, UniProt P97266)"
metric_name = "Ki"
endpoint_result = 8.1

[[record]]
compound = "C[C@@H](NC(=O)[C@@H](N)Cc1ccc(O)cc1)C(=O)NCC(=O)N(C)[C@@H](Cc1ccccc1)C(=O)NCCO"
target_entity = "Mu-type opioid receptor (Cavia porcellus, UniProt P97266)"
metric_name = "Ki"
endpoint_result = 1.1

[[record]]
compound = "CC(C)C[C@H](NC(=O)[C@H](Cc1ccccc1)NC(=O)CNC(=O)[C@@H](CO)NC(=O)[C@@H](N)Cc1ccc(O)cc1)C(=O)N[C@H](C(=O)O)[C@@H](C)O"
target_entity = "Mu-type opioid receptor (Cavia porcellus, UniProt P97266)"
metric_name = "Ki"
endpoint_result = 20.6

[[record]]
compound = "CC(C)=CCN1CC[C@@]2(C)c3cc(O)ccc3C[C@@H]1[C@@H]2C"
target_entity = "Mu-type opioid receptor (Cavia porcellus, UniProt P97266)"
metric_name = "Ki"
endpoint_result = 5.7


* * *

pKi: −log10 of the molar value.
Endpoint: pKi. System: 5-hydroxytryptamine receptor 1A (Homo sapiens). Items follow.
Sequence (P08908 whole entry): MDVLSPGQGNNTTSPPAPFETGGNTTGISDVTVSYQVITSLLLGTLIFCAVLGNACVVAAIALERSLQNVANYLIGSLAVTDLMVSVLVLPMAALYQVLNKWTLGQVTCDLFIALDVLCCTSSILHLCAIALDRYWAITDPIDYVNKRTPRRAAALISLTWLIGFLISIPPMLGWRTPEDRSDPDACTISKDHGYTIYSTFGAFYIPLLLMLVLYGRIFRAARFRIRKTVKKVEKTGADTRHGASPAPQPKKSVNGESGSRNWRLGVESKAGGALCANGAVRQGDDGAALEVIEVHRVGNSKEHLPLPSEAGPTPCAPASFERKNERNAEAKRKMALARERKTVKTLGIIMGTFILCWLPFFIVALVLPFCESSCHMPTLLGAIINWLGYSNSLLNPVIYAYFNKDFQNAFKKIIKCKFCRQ
metric name: pKi

[[record]]
compound = "N[C@@H]1C[C@H]1c1ccccc1 [Tranylcypromine,(+)]"
value_qualifier = "="
endpoint_result = 5.22

[[record]]
compound = "CN[C@@H](C)Cc1ccc2c(c1)OCO2 [MDMA, R(-)]"
value_qualifier = "<"
endpoint_result = 5.00

[[record]]
compound = "CCCN1CCCC(c2cccc(O)c2)C1 (stereo not given)"
value_qualifier = "="
endpoint_result = 5.38

[[record]]
compound = "Fc1ccc(C(OCCN2CCN(CCCc3ccccc3)CC2)c2ccc(F)cc2)cc1"
value_qualifier = "="
endpoint_result = 5.33

[[record]]
compound = "CN1CCc2cc(Cl)c(O)cc2[C@@H](c2ccccc2)C1 [SCH 23390,R(+)]"
value_qualifier = "="
endpoint_result = 6.18


* * *

# target entity: Kappa-type opioid receptor (Cavia porcellus)
# Sequence (P41144 whole entry): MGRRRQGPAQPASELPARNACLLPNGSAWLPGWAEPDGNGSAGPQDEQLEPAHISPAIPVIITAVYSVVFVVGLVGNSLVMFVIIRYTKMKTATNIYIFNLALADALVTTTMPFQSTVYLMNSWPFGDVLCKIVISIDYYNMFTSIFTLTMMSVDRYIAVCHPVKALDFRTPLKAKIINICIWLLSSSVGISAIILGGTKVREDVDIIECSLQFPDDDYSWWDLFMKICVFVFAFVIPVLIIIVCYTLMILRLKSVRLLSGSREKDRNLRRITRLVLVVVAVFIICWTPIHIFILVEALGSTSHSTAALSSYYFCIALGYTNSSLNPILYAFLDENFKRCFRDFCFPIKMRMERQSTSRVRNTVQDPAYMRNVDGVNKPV
metric name: Ki (µM)

[[record]]
substance = "H-YGGFMTSEKSQTPLVTLFKNAIVKNAHKKGQ-OH [Beta-Endorphin]"
endpoint_result = 0.0435

